- Test system: OVCAR-4
- testMethodNotes: Growth inhibition of human OVCAR4 cells at 10 uM relative to control
- Assay type: functional
- appliedConditions: read-out: GI
quantityName: inhibition of growth at 10 µM (%)

> print(dat)
                                   compound  testedsystem  observedmeasurement
1  Cc1ccccc1-n1c(C)nc2cc(NC(=O)c3ccc(Cl)cc3)ccc2c1=O       OVCAR-4                 69.9
2  Cc1ccccc1-n1c(C)nc2cc(N3C(=O)CSC3c3ccccc3)ccc2c1=O (centres undefined)       OVCAR-4                    3
3  Cc1ccccc1-n1c(C)nc2cc(NC(=O)c3ccccc3)ccc2c1=O       OVCAR-4                 17.3
4  Cc1ccccc1-n1c(C)nc2cc(N3C(=O)CSC3c3ccc(Cl)cc3)ccc2c1=O (centres undefined)       OVCAR-4                    5

###

- System: HT-29
- testMethodNotes: Growth inhibition of human HT-29 cells at 10 uM relative to control
- Format: functional
- appliedConditions: read-out: GI
quantityName: inhibition of growth at 10 µM (%)

> print(dat)
                                   compound                   quantityname  observedmeasurement
1  Cc1ccccc1-n1c(C)nc2cc(N3C(=O)CSC3c3ccc(F)cc3)ccc2c1=O (stereo not given)  inhibition of growth at 10 µM                    3
2  Cc1ccccc1-n1c(C)nc2cc(NC(=O)c3ccc(Cl)cc3)ccc2c1=O  inhibition of growth at 10 µM                 38.1
3  Cc1ccccc1-n1c(C)nc2cc(NC(=O)c3cccs3)ccc2c1=O  inhibition of growth at 10 µM                   11
4  CCOC(=O)Nc1ccc2c(=O)n(-c3ccccc3C)c(C)nc2c1  inhibition of growth at 10 µM                  7.8
5  Cc1ccccc1-n1c(C)nc2cc(NS(=O)(=O)c3ccccc3)ccc2c1=O  inhibition of growth at 10 µM                    3

###

- System: SF-295
- testMethodNotes: Growth inhibition of human SF295 cells at 10 uM relative to control
- Assay type: functional
- appliedConditions: read-out: GI
Please note: True applies when inhibition of growth at 10 µM is 20% or greater, and False applies otherwise.

> print(dat)
                                   compound  discretelabel
1          Cc1ccccc1-n1c(C)nc2cc(N)ccc2c1=S          False
2  Cc1ccccc1-n1c(C)nc2cc(NC(=O)c3cccs3)ccc2c1=O          False
3  Cc1ccccc1-n1c(C)nc2cc(NS(=O)(=O)c3ccccc3)ccc2c1=O          False
4  Cc1ccccc1-n1c(C)nc2cc(NC(=O)c3ccccc3)ccc2c1=O           True
5  Cc1ccccc1-n1c(C)nc2cc(N3C(=O)CSC3c3ccc(F)cc3)ccc2c1=O (stereo unspecified)          False
6  Cc1ccccc1-n1c(C)nc2cc(NC(=O)c3ccc(Cl)cc3)ccc2c1=O           True
